biological target: HEK cells stably transfected with tetracycline inducible hNR1 and hNR2A (Homo sapiens (Human), UniProt Q05586+Q12879); experiment: Assay 1: Cell-Based Assay (cytosolic calcium, positive allosteric modulation); details: with 30 μM glycine and 300 nM L-glutamate (EC30); given for compounds reaching maximal response plateaus
Sequence (Q12879 23-1464, other chains not shown): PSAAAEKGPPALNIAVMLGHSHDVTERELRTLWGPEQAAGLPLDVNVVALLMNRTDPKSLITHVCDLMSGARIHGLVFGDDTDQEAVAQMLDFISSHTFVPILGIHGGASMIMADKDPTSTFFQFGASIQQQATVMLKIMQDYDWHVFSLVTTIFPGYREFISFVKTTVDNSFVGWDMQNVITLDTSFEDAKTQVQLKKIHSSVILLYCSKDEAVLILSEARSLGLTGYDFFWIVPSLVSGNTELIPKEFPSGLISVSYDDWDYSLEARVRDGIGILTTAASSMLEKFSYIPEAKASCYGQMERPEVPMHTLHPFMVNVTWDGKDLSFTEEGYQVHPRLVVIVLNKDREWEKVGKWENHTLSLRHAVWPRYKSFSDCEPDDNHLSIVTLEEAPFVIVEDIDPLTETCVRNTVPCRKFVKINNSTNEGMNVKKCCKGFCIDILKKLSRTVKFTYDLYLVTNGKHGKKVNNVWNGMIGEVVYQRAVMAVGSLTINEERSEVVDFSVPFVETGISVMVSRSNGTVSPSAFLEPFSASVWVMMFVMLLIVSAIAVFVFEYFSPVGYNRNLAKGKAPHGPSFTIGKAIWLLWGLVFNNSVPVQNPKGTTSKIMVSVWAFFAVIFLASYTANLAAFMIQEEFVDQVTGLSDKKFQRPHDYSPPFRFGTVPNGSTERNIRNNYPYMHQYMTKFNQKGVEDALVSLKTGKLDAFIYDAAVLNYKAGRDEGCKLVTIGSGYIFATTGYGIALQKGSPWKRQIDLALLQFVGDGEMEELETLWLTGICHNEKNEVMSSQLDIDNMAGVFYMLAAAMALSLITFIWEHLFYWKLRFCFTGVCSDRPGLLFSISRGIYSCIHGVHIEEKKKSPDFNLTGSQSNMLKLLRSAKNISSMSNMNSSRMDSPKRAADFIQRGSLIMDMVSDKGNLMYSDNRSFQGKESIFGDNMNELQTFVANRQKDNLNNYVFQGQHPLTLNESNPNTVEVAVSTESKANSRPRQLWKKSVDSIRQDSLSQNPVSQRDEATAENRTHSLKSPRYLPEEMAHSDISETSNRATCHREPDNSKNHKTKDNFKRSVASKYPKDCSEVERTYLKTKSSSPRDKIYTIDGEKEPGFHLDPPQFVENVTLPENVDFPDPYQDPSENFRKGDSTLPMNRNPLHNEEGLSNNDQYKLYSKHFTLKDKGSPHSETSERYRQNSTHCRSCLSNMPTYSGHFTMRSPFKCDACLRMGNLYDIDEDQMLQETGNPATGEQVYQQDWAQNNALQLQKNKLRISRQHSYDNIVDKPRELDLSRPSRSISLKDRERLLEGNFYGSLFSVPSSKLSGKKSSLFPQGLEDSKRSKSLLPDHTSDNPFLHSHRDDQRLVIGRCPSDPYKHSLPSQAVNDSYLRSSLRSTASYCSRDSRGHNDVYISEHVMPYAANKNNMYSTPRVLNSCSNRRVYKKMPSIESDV
pEC50: −log10 of the molar value.
endpoint_name: pEC50

molecule_smiles	endpoint_value
CCN(Cc1cc(=O)n2c(C)cccc2n1)c1ccc(F)cc1	4.87

A: CCN(Cc1cc(=O)n2c(-c3cncnc3)cccc2n1)c1ccc(F)cc1
B: O=c1cc(Cn2nc(C(F)(F)F)cc2Cl)nc2cc(C(F)(F)F)cc(Cl)n12
Query: Name the one with the greater pEC50 value, either A or B as given. Lab note: record the label of whichever item you select.
Reply: A

Attribution: patent US10280165B2
